// read-out pKi, gathered for human DP1 receptor (Homo sapiens, UniProt Q13258) from published studies
Give only the number. pKi is defined as minus log10 of concentration in molar units.

Below, 3 molecules whose answers are already recorded.
Cc1c(Cc2cccn2S(=O)(=O)c2ccc(F)cc2F)c2cc(F)ccc2n1CC(=O)O : 5.10
Cc1ccc(S(=O)(=O)n2cccc2Cc2c(C)n(CC(=O)O)c3ccc(F)cc23)cc1 : 5.74
Cc1c(Cc2cccn2S(=O)(=O)c2ccccc2)c2cc(F)ccc2n1CC(=O)O : 5.04

Request: Report pKi, nothing else, for this molecule: CC(C)Oc1ccc(S(=O)(=O)N2CCC(n3cc(CC(=O)O)c4cc(F)ccc43)CC2)cc1
Response: 8.25

Request: Report pKi, nothing else, for this molecule: CC(C)Oc1ccc(S(=O)(=O)N2CC[C@@H](n3cc(CC(=O)O)c4ccc(F)cc43)C2)cc1
Response: 8.37

Request: Report pKi, nothing else, for this molecule: Cc1c(Cc2ccc3cccc(O)c3n2)c2cc(F)ccc2n1CC(=O)O
Response: 5.11
